Tested on: 616215-338-R-J1-PDC complex spheroid viability
Experiment Description: Anticancer human tumor 616215-338-R-J1-PDC patient-derived colon adenocarcinoma cell line growth inhibition [RAS]; active = viability on the fitted dose curve at most 10% of control; inactive = the rest
Study Conditions: second compound 0.003 µM; first compound 3.16 µM
Entry note: the call must match one of Y = active, N = inactive

Could you kindly confirm the outcome this assay logged for Cc1nc(N2CCC3(CC2)COC(C)C3N)c(CO)nc1Sc1ccnc(N)c1Cl (centres undefined) + CCn1c(-c2cc(N3CCN(C)CC3)cnc2C(C)OC)c2c3cc(ccc31)-c1csc(n1)CC(NC(=O)C1CC1C)C(=O)N1CCCC(N1)C(=O)OCC(C)(C)C2 ?
N

Could you kindly confirm the outcome this assay logged for CCC(CC)c1cc(NC2CCC(N)C2)n2nccc2n1 (centres undefined) + CCn1c(-c2cccnc2C(C)OC)c2c3cc(ccc31)N1CCOC(CC(NC(=O)C(C(C)C)N(C)C(=O)C3(F)CCN(C(=O)C#CC(C)(C)N(C)C)CC3)C(=O)N3CCCC(N3)C(=O)OCC(C)(C)C2)C1 ?
Y

Could you kindly confirm the outcome this assay logged for CC1(O)CCCC1n1c(=O)c(C(F)F)cc2cnc(NC3CCN(S(C)(=O)=O)CC3)nc21 (centres undefined) + CCn1c(-c2cccnc2C(C)OC)c2c3cc(ccc31)N1CCOC(CC(NC(=O)C(C(C)C)N(C)C(=O)C3(F)CCN(C(=O)C#CC(C)(C)N(C)C)CC3)C(=O)N3CCCC(N3)C(=O)OCC(C)(C)C2)C1 ?
N

Could you kindly confirm the outcome this assay logged for C[C@@H](NC(=O)c1ncnc(N)c1Cl)c1ncc(C(=O)Nc2cc(C(F)(F)F)c(Cl)cn2)s1 + CCn1c(-c2cc(N3CCN(C)CC3)cnc2C(C)OC)c2c3cc(ccc31)-c1csc(n1)CC(NC(=O)C1CC1C)C(=O)N1CCCC(N1)C(=O)OCC(C)(C)C2 ?
N

----------
Reported viability, T/C values are given for each entry in this list.
Test system: 616215-338-R-J1-PDC complex spheroid viability
Experiment Description: Anticancer human tumor 616215-338-R-J1-PDC cell line growth inhibition [RAS];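 also: spheroids exposed to agents for seven days before viability readout; 100% = DMSO vehicle control viability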
Study Conditions: second compound 0.3 µM; first compound 0.1 µM; hits give low values
Quick reminder: number only, in %, skip the unit.

Cc1nc(N2CCC3(CC2)COC(C)C3N)c(CO)nc1Sc1ccnc(N)c1Cl (configuration not stated) + CCn1c(-c2cc(N3CCN(C)CC3)cnc2C(C)OC)c2c3cc(ccc31)-c1csc(n1)CC(NC(=O)C1CC1C)C(=O)N1CCCC(N1)C(=O)OCC(C)(C)C2 ... 40.9

Here's the next entry for you.
viability, T/C measured on C[C@@H](NC(=O)c1ncnc(N)c1Cl)c1ncc(C(=O)Nc2cc(C(F)(F)F)c(Cl)cn2)s1 + CCn1c(-c2cc(N3CCN(C)CC3)cnc2C(C)OC)c2c3cc(ccc31)-c1csc(n1)CC(NC(=O)C1CC1C)C(=O)N1CCCC(N1)C(=O)OCC(C)(C)C2 = 35.6

----------
Test system: 616215-338-R-J1-PDC complex spheroid viability
Experiment Description: Anticancer human tumor 616215-338-R-J1-PDC cell line growth inhibition [RAS];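 also: spheroids exposed to agents for seven days before viability readout; 100% = DMSO vehicle control viability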
Study Conditions: second compound 3.16 µM; first compound 0.316 µM; hits give low values
Quantity: viability, T/C (%)
Quick reminder: number only, in %, skip the unit.

viability, T/C measured on CC(C)NCC(C(=O)N1CCN(c2ncnc3c2C(C)CC3O)CC1)c1ccc(Cl)cc1 (stereo not drawn) + C#Cc1c(F)ccc2cc(O)cc(-c3ncc4c(N5CC6CCC(C5)N6)nc(OCC56CCCN5CC(F)C6)nc4c3F)c12 = 94.5

viability, T/C measured on CCN1CCN(Cc2ccc(Nc3ncc(F)c(-c4cc(F)c5nc(C)n(C(C)C)c5c4)n3)nc2)CC1 + C#Cc1c(F)ccc2cc(O)cc(-c3ncc4c(N5CC6CCC(C5)N6)nc(OCC56CCCN5CC(F)C6)nc4c3F)c12 = 44.6

viability, T/C measured on CC1(O)CCCC1n1c(=O)c(C(F)F)cc2cnc(NC3CCN(S(C)(=O)=O)CC3)nc21 (stereo not drawn) + C#Cc1c(F)ccc2cc(O)cc(-c3ncc4c(N5CC6CCC(C5)N6)nc(OCC56CCCN5CC(F)C6)nc4c3F)c12 = 29.8

viability, T/C measured on Nc1ccn(C2OC(CO)C(O)C2(F)F)c(=O)n1 (stereo not drawn) + C#Cc1c(F)ccc2cc(O)cc(-c3ncc4c(N5CC6CCC(C5)N6)nc(OCC56CCCN5CC(F)C6)nc4c3F)c12 = 11.6

viability, T/C measured on C[C@@H](NC(=O)c1ncnc(N)c1Cl)c1ncc(C(=O)Nc2cc(C(F)(F)F)c(Cl)cn2)s1 + C#Cc1c(F)ccc2cc(O)cc(-c3ncc4c(N5CC6CCC(C5)N6)nc(OCC56CCCN5CC(F)C6)nc4c3F)c12 = 72.3

viability, T/C measured on CCC(CC)c1cc(NC2CCC(N)C2)n2nccc2n1 (stereo not drawn) + C#Cc1c(F)ccc2cc(O)cc(-c3ncc4c(N5CC6CCC(C5)N6)nc(OCC56CCCN5CC(F)C6)nc4c3F)c12 = 121

viability, T/C measured on C=CC(=O)Nc1cc(Nc2nccc(-c3cn(C)c4ccccc34)n2)c(OC)cc1N(C)CCN(C)C + C#Cc1c(F)ccc2cc(O)cc(-c3ncc4c(N5CC6CCC(C5)N6)nc(OCC56CCCN5CC(F)C6)nc4c3F)c12 = 42.2

viability, T/C measured on C=CC(=O)N1CCN(c2nc(OCC3CCCN3C)nc3c(F)c(-c4nc(N)cc(C)c4C(F)(F)F)c(Cl)cc23)C(C)C1 (stereo not drawn) + C#Cc1c(F)ccc2cc(O)cc(-c3ncc4c(N5CC6CCC(C5)N6)nc(OCC56CCCN5CC(F)C6)nc4c3F)c12 = 109

Where these numbers come from: PubChem BioAssay AID2060898
